# IC50 per entry
Target: α-glucosidase from Saccharomyces cerevisiae
Test: α-glucosidase inhibition assay (p-NPG substrate, pNP release over 60 min)
Details: compounds and acarbose; max concentration tested 1 mM; '-' = no inhibitory activity at maximum dose tested
Measurement label: IC50

Compound	Measurement label	Reported result
C[C@@H]1O[C@@H](Oc2c(-c3ccc(O)c(O)c3)oc3cc(O)cc(O)c3c2=O)[C@H](O)[C@H](O)[C@H]1O [Compound 9, Quercitrin]	IC50	7.77 µM
O=C(O)/C=C/c1ccc(O)cc1 [Compound 5, Trans-p-coumaric acid]	IC50	> 41.7 µM
CC[C@H](CC[C@@H](C)[C@H]1CC[C@H]2[C@@H]3CC=C4C[C@@H](O)CC[C@]4(C)[C@H]3CC[C@]12C)C(C)C [Compound 4, β-Sitosterol]	IC50	> 41.7 µM
O=C(O)/C=C\c1ccc(O)cc1 [Compound 2, Cis-p-coumaric acid]	IC50	> 41.7 µM

Every entry's value here was drawn from paper PMC6274503.
